Consider the following molecules; for each one, report its growth inhibition.
# Method: NCI Yeast Anticancer Drug Screen. Data for the cln2 rad14 strain (AID 165);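 note: 0% = growth equal to vehicle treated cultures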
# Measurement Parameters: S. cerevisiae cln2 rad14 strain, at 50.0 µM, active compounds read high
About 79,000 compounds went through this panel and 15% of them were active in at least one assay; those are over-represented in the sample as a whole.
Give bare numbers, in %.

Nc1cc(C(=O)O)ccc1O.[Cl][Sn][Cl]; -45.8
O=C(O)C(F)(F)F.O=C(O)C(F)(F)F.O=C(O)C(F)(F)F.O=C(O)C(F)(F)F.[Rh].[Rh]; 21.2
COc1ccccc1N=Nc1cccc[c]1[Hg][Cl]; 98.7
Nc1ccncc1; 10.9
COc1ccc(NC(=O)/C(=N/NC(N)=S)C2C(=O)NC(=S)NC2=O)c(OC)c1; -21.9
O=c1[nH]c2ccccc2n1C1CCN(CCCC(c2ccc(F)cc2)c2ccc(F)cc2)CC1; -24
NC(CCCc1ccc(N(CCCl)CCCl)cc1)C(=O)O (stereo not drawn); -52.7
O=C(Cl)c1cc([N+](=O)[O-])cc([N+](=O)[O-])c1; -10.2
CCOP(=S)(OCC)OP(=O)(CC)CC; 4.4
O=C1SCCC1CO (stereo not drawn); -3.15

Required: growth inhibition, one value per molecule below.
1. O=C(Nc1cccc(F)c1)c1c(O)[nH]c(=S)[nH]c1=O
2. COC(=O)[CH2][Sn]([CH2]C(=O)OC)([CH]1CCCCC1)[CH]1CCCCC1
3. CP1CC(Br)C(Br)C1 (stereo not drawn)
4. CC(C)C1(NC(=O)C2CC3c4cccc5[nH]cc(c45)CC3N(C)C2)OC2(O)C3CCCN3C(=O)C(Cc3ccccc3)N2C1=O (stereo not drawn)
5. Cc1cc(N(CCCl)CCCl)ccc1C=N/C(C#N)=C(\N)C#N
6. C[N+](C)(C)CCNP(=O)(Oc1ccccc1)c1ccccc1 (stereo not drawn)
7. CC1=C/C(=N\[Se]c2ccccc2)C(=O)C(C)=C1
8. C/C=C/C1(CCCC)C(=O)NC(=O)NC1=O

[10.9, 98, -7.05, 84.3, -8.6, 1.35, -9.05, 8.75]

Give one value of growth inhibition per listed molecule.
1. CCN1C(=O)NC(=O)C(CC)(N2CCCCC2)C1=O (stereo not drawn)
2. CC(=O)OC1CCC2(C)C3CCC4(C)C(c5ccc(=O)oc5)CC5OC54C3CCC2(O)C1 (stereo not drawn)
3. COc1ccc2nc3ccccc3nc2c1 (tested in a mixture with another compound)

15
-1.8
19.6

Hi! Can you tell me growth inhibition for each of these molecules?
1. Nc1ccc([N+](=O)[O-])cc1[N+](=O)[O-]
2. O=C1N[C@H]2[C@H](O)[C@H](O)[C@@H](O)[C@H](O)[C@@H]2c2cc3c(c(O)c21)OCO3

-8.8
69
